# ASSAY TARGET: T1, IL-10R2-Fc/His (UniProt Q08334 20-220, limits assumed)
# T1 sequence (looked up): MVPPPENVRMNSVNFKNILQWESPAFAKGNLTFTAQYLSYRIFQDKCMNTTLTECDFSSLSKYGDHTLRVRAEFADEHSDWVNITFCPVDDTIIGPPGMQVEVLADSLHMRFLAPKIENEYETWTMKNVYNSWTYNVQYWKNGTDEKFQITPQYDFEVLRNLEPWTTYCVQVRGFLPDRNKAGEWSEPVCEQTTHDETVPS
# EXPERIMENT NOTES: ELISA, IL-10R2-Fc/His coated
Reported Binding recovery (>60%) values follow for various binders

BINDER: IL-10 Glu81Cys-R4-12 (ligand, human, UniProt P22301 19-178, looked up, R4-12 on Cys 81, mature) SPGQGTQSENSCTHFPGNLPNMLRDLRDAFSRVKTFFQMKDQLDNLLLKESLLEDFKGYLGCQALSEMIQFYLEEVMPQACNQDPDIKAHVNSLGENLKTLRLRLRRCHRFLPCENKSKAVEQVKNAFNKLQEKGIYKAMSEFDIFINYIEAYMTMKIRN
Binding recovery (>60%): 93.6
//
BINDER: IL-10 Ile87Cys-R4-6 (ligand, human, UniProt P22301 19-178, looked up, R4-6 on Cys 87, mature) SPGQGTQSENSCTHFPGNLPNMLRDLRDAFSRVKTFFQMKDQLDNLLLKESLLEDFKGYLGCQALSEMIQFYLEEVMPQAENQDPDCKAHVNSLGENLKTLRLRLRRCHRFLPCENKSKAVEQVKNAFNKLQEKGIYKAMSEFDIFINYIEAYMTMKIRN
Binding recovery (>60%): 95.7
//
BINDER: IL-10 Phe15Cys-R4-8 (ligand, human, UniProt P22301 19-178, looked up, R4-8 on Cys 15, mature) SPGQGTQSENSCTHCPGNLPNMLRDLRDAFSRVKTFFQMKDQLDNLLLKESLLEDFKGYLGCQALSEMIQFYLEEVMPQAENQDPDIKAHVNSLGENLKTLRLRLRRCHRFLPCENKSKAVEQVKNAFNKLQEKGIYKAMSEFDIFINYIEAYMTMKIRN
Binding recovery (>60%): 90
//
BINDER: IL-10 Lys99Cys-R4-7 (ligand, human, UniProt P22301 19-178, looked up, R4-7 on Cys 99, mature) SPGQGTQSENSCTHFPGNLPNMLRDLRDAFSRVKTFFQMKDQLDNLLLKESLLEDFKGYLGCQALSEMIQFYLEEVMPQAENQDPDIKAHVNSLGENLCTLRLRLRRCHRFLPCENKSKAVEQVKNAFNKLQEKGIYKAMSEFDIFINYIEAYMTMKIRN
Binding recovery (>60%): 117
//
BINDER: IL-10 Ala89Cys-R4-1 (ligand, human, UniProt P22301 19-178, looked up, R4-1 on Cys 89, mature) SPGQGTQSENSCTHFPGNLPNMLRDLRDAFSRVKTFFQMKDQLDNLLLKESLLEDFKGYLGCQALSEMIQFYLEEVMPQAENQDPDIKCHVNSLGENLKTLRLRLRRCHRFLPCENKSKAVEQVKNAFNKLQEKGIYKAMSEFDIFINYIEAYMTMKIRN
Binding recovery (>60%): 78.7
//
BINDER: IL-10 Asn126Cys-R4-18 (ligand, human, UniProt P22301 19-178, looked up, R4-18 on Cys 126, mature) SPGQGTQSENSCTHFPGNLPNMLRDLRDAFSRVKTFFQMKDQLDNLLLKESLLEDFKGYLGCQALSEMIQFYLEEVMPQAENQDPDIKAHVNSLGENLKTLRLRLRRCHRFLPCENKSKAVEQVKCAFNKLQEKGIYKAMSEFDIFINYIEAYMTMKIRN
Binding recovery (>60%): 99
//
BINDER: IL-10 Val33Cys-R4-7 (ligand, human, UniProt P22301 19-178, looked up, R4-7 on Cys 33, mature) SPGQGTQSENSCTHFPGNLPNMLRDLRDAFSRCKTFFQMKDQLDNLLLKESLLEDFKGYLGCQALSEMIQFYLEEVMPQAENQDPDIKAHVNSLGENLKTLRLRLRRCHRFLPCENKSKAVEQVKNAFNKLQEKGIYKAMSEFDIFINYIEAYMTMKIRN
Binding recovery (>60%): 91.4
